- Target System: EP2 subtype of the human PGE2 receptor (Homo sapiens, UniProt P43116)
- Sequence (P43116 whole entry): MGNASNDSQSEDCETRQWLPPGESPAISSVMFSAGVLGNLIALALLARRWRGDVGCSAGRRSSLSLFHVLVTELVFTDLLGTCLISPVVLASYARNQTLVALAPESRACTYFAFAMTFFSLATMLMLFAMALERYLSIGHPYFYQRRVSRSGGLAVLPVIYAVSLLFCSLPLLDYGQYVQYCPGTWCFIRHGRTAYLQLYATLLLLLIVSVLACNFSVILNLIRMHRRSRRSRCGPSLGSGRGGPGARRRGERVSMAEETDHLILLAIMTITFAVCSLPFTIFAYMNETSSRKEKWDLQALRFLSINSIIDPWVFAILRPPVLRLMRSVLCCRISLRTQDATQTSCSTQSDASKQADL
- Assay Method Text: cAMP antagonism test on the human EP2 receptor (HTRF cAMP detection)
- Format: cell-based
- Conditions: hEP2 receptor, read-out: Antagonism hEP2 IC50
Measured Property: IC50 (nM)

Example compounds with recorded IC50:
>>> measured_number("COc1cccc(-c2ccc(C(=O)N3CCC(Cn4cc5c(C)c(C(=O)NCC(F)(F)F)ccc5n4)CC3)cc2)n1")
128
>>> measured_number("COCCNC(=O)c1ccc2nn(CC3CCN(C(=O)c4ccc(OC)cc4F)CC3)cc2c1C")
25.8

[P] COCCNC(=O)c1ccc2nn(CC3CCN(C(=O)c4cnc(-c5ccccc5)s4)CC3)cc2c1C
[Q] COCCNC(=O)c1ccc2nn(CC3CCN(C(=O)c4ccc(C#N)cc4)CC3)cc2c1C
Returns: the argument ( P or Q ) having the larger IC50. Indicate which entry you chose by stating its label.
Q

* * *

- Target System: EP2 subtype of the human PGE2 receptor (Homo sapiens)
- Assay Method Text: cAMP antagonism test on the human EP2 receptor (HTRF cAMP detection)
- Type: cell-based
- Conditions: hEP2 receptor, read-out: Antagonism hEP2 IC50
pIC50: −log10 of the molar value.
Measured Property: pIC50

Example results:
>>> measured_number("COCCNC(=O)c1ccc2nn(CC3CCN(C(=O)c4cc(-c5ccccc5)no4)CC3)cc2c1C")
7.44
>>> measured_number("Cc1c(C(=O)NCCOC(C)(C)C)ccc2nn(CC3CCN(C(=O)c4ccc(-c5ccc(F)cc5)cc4)CC3)cc12")
7.86
>>> measured_number("Cc1c(C(=O)NCC2CCCCO2)ccc2nn(CC3CN(C(=O)c4ccc(Cl)cc4)C3)cc12 (single isomer, unassigned) [Example 146]")
7.28

[A] Cc1c(C(=O)NCCOC(F)(F)F)ccc2nn(CC3CN(C(=O)c4ccc(Cl)cc4)C3)cc12
[B] COCCNC(=O)c1cc2cn(CC3CN(C(=O)c4ccc(C(F)(F)F)c(F)c4)C3)nc2cc1C
# returns the entry with the larger pIC50; inputs A and B Reply briefly: the label of your chosen item.
A

[P] COCCNC(=O)c1ccc2nn(CC3CCN(C(=O)c4ccc(SC(F)(F)F)cc4)CC3)cc2c1C
[Q] Cc1c(C(=O)NCCOCC(F)(F)F)ccc2nn(CC3CCN(C(=O)c4ccc(-c5ccc(F)cc5)cc4)CC3)cc12
So which one has the bigger pIC50 here, P or Q ? Reply with the label of the item you choose.
P

* * *

- Target System: EP2 subtype of the human PGE2 receptor (Homo sapiens, UniProt P43116)
- Assay Method Text: cAMP antagonism test on the human EP2 receptor (HTRF cAMP detection)
- Type: cell-based
- Conditions: hEP2 receptor, read-out: Antagonism hEP2 IC50
pIC50: −log10 of the molar value.
Measured Property: pIC50

[A] Cc1cc2nn(CC3CN(C(=O)c4ccc(Cl)cc4)C3)cc2cc1C(=O)NCCN1CCOCC1 [Example 278]
[B] COCCNC(=O)c1ccc2nn(CC3CCN(C(=O)c4ccc(-c5ccc(OC)cc5)cc4)CC3)cc2c1C [Example 351]
[C] COCCNC(=O)c1ccc2nn(CC3CCN(C(=O)c4ccc(Oc5ccc(C#N)cn5)cc4)CC3)cc2c1C [Example 356]
[D] Cc1c(C(=O)NCC(F)(F)F)ccc2nn(CC3CCN(C(=O)c4cc5ccccc5[nH]4)CC3)cc12 [Example 296]
Ordering: ascending pIC50. Rank them, then answer with their labels in that order.
A, C, D, B
(A: 6.98, C: 7.20, D: 7.53, B: 8.16)

* * *

- Target System: EP4 subtype of the human PGE2 receptor (Homo sapiens, UniProt P35408)
- Sequence (P35408 whole entry): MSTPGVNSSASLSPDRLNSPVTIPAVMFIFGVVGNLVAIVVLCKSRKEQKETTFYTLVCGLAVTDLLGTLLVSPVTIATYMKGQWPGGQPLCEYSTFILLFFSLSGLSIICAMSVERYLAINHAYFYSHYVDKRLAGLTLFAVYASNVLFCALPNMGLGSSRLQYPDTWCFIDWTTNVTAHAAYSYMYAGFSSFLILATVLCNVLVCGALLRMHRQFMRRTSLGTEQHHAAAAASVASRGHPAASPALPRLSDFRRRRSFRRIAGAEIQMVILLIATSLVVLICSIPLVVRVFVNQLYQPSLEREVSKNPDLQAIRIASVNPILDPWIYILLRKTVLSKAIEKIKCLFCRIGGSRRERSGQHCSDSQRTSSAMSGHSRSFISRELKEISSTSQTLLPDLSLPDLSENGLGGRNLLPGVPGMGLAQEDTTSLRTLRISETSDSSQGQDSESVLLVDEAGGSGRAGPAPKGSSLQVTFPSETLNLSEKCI
- Assay Method Text: cAMP antagonism test on the human EP4 receptor (HTRF cAMP detection)
- Assay type: cell-based
- Conditions: selectivity towards hEP4, IC50 measured by cAMP antagonism test
Measured Property: Selectivity hEP2/hEP4

Would you please look over these solved cases?
>>> result("Cc1c(C(=O)NCCOC2CC2)ccc2nn(CC3CN(C(=O)c4ccc(OC(F)(F)F)cc4)C3)cc12 [Example 136]")
"xxx (xxx > 100)"
>>> result("COCCNC(=O)c1ccc2nn(CC3CCN(C(=O)c4ccc(OC(F)(F)F)cc4)CC3)cc2c1C [Example 55]")
"xxx (xxx > 100)"
>>> result("Cc1c(C(=O)NCCOC(C)C)ccc2nn(CC3CCN(C(=O)c4ccc(-c5ccc(F)cc5)cc4)CC3)cc12 [Example 100]")
"xxx (xxx > 100)"
>>> result("COCCNC(=O)c1ccc2nn(CC3CCN(C(=O)c4ccc(Cl)cc4)CC3)cc2c1OCC(F)(F)F [Example 232]")
"xxx (xxx > 100)"
>>> result("Cc1c(C(=O)NCC(F)(F)F)ccc2nn(CC3CCN(C(=O)c4nc(-c5ccccc5)no4)CC3)cc12 [Example 305]")
"xx (xx: 10-100)"
>>> result("COCCNC(=O)c1ccc2nn(CC3CCN(C(=O)c4ccc(-c5cnco5)cc4)CC3)cc2c1C [Example 36]")
"xxx (xxx > 100)"
>>> result("COCCNC(=O)c1ccc2nn(CC3CN(C(=O)c4ccc(-c5ccc(F)cc5)cc4)C3)cc2c1C [Example 158]")
"xxx (xxx > 100)"
>>> result("COCCNC(=O)c1cc2cn(CC3CCN(C(=O)c4ccc(Cl)cc4)CC3)nc2cc1C [Example 205]")
"xxx (xxx > 100)"
>>> result("Cc1c(C(=O)NCCOCC2CC2)ccc2nn(CC3CCN(C(=O)c4ccc(Cl)cc4)CC3)cc12 [Example 84]")
"xxx (xxx > 100)"
>>> result("COCCNC(=O)c1ccc2nn(CC3CCN(C(=O)c4ccc(-c5ccc(OC)nc5)cc4)CC3)cc2c1C [Example 375]")
"xxx (xxx > 100)"

Form: compound = COCCNC(=O)c1ccc2nn(CC3CCN(C(=O)c4ccc5ccc(OC)cc5c4)CC3)cc2c1C [Example 344] ; Selectivity hEP2/hEP4 = xxx (xxx > 100)

Kindly note the recorded Selectivity hEP2/hEP4 for Cc1c(C(=O)NCC(F)(F)F)ccc2nn(CC3CCN(C(=O)c4ccc(Oc5ccc(C#N)cn5)cc4)CC3)cc12 [Example 310] , which is xx (xx: 10-100)

Form: compound = Cc1c(C(=O)NCC2CCCCO2)ccc2nn(CC3CCN(C(=O)c4ccc(Oc5ccc(C(F)(F)F)cc5)cc4)CC3)cc12 (racemic) [Example 248] ; Selectivity hEP2/hEP4 = xxx (xxx > 100)

The measured Selectivity hEP2/hEP4 associated with Cc1c(C(=O)NCCN2CCOCC2)ccc2nn(CC3CCN(C(=O)c4ccc(-c5ccc(F)cc5)cc4)CC3)cc12 [Example 66] reads xx (xx: 10-100)

Noted for Cc1c(C(=O)NCCCO)ccc2nn(CC3CCN(C(=O)c4ccc(Cl)cc4)CC3)cc12 [Example 253] : its Selectivity hEP2/hEP4 reads xx (xx: 10-100)

# compound COCCNC(=O)c1ccc2nn(CC3CCN(C(=O)c4ccc(-c5ccc(C)c(C)c5)cc4F)CC3)cc2c1C [Example 363] ; its Selectivity hEP2/hEP4 = xxx (xxx > 100)

Selectivity hEP2/hEP4 in this record for COCCNC(=O)c1ccc2nn(CC3CCN(C(=O)c4ccc(-n5cccn5)cc4)CC3)cc2c1C [Example 38] : xxx (xxx > 100)

Item: Cc1c(C(=O)NCCN2CCOCC2)ccc2nn(CC3CCN(C(=O)c4cccc(S(F)(F)(F)(F)F)c4)CC3)cc12 [Example 64] | Selectivity hEP2/hEP4: x (x: 1-10)

Lab book: Selectivity hEP2/hEP4 of O=C(NCCOCC1CC1)c1ccc2nn(CC3CCN(C(=O)c4ccc(Oc5ccc(F)cc5)cc4)CC3)cc2c1OCC(F)(F)F [Example 236] noted as xxx (xxx > 100)

The measured Selectivity hEP2/hEP4 associated with COCCNC(=O)c1ccc2nn(CC3CCN(C(=O)c4ccc(Br)cc4F)CC3)cc2c1C [Example 8] reads xxx (xxx > 100)

Note to self: Selectivity hEP2/hEP4 recorded for COCCNC(=O)c1ccc2nn(CC3CCN(C(=O)c4ccc(Cl)cc4)CC3)cc2c1OC [Example 262] was xxx (xxx > 100)

The compound listed as COCCNC(=O)c1ccc2nn(CC3CCN(C(=O)c4ccc(-c5ccc(F)cc5Cl)cc4)CC3)cc2c1C [Example 384] shows Selectivity hEP2/hEP4 equal to xxx (xxx > 100)

The reported Selectivity hEP2/hEP4 of the compound COCCNC(=O)c1cc2cn(CC3CN(C(=O)c4ccc(-c5ccc(F)cc5)cc4)C3)nc2cc1C [Example 204] was xxx (xxx > 100)

Record Cc1c(C(=O)NCC(F)(F)F)ccc2nn(CC3CN(C(=O)c4ccc(OC(F)(F)F)cc4)C3)cc12 [Example 130] , field Selectivity hEP2/hEP4: xx (xx: 10-100)

Selectivity hEP2/hEP4 measured on Cc1c(C(=O)NCCN2CCOCC2)ccc2nn(CC3CCN(C(=O)c4cccc(C(F)(F)F)c4)CC3)cc12 [Example 65] = x (x: 1-10)
